This collection of values is drawn from paper PMC10279719.

Biological target: 14-3-3σ (sigma) (human)
Sequence (A8K1N0 whole entry, canonical isoform): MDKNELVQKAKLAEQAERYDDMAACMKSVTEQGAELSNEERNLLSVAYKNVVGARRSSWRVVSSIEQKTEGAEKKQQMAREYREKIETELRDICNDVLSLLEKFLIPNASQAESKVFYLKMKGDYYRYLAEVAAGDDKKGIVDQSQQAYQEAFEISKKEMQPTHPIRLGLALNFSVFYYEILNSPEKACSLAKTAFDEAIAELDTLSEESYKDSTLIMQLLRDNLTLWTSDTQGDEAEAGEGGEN
Assay: SPR; 14-3-3 isoforms amine coupled to a CM5 chip, tandem peptides as analytes (10 µM-10 nM for PEAK3 tandem-pS69, 20 µM-20 nM for all others); Biacore S200, 20 °C, HBS-TP; steady state, 1:1 model
pKd: −log10 of the molar value. Non-standard residues stand in square brackets, D forms with d. pT = C[C@@H](OP(=O)(O)O)[C@H](N)C(=O)O
Quantity: pKd

>  <Binder>
Ac-PPPLPQKKIVSRAASSPDGF-NH2 [PEAK2 tandem peptide, non-phosphorylated (residues 812-831)]

>  <Quantity>
pKd

>  <Measured>
< 4.00

$$$$
>  <Binder>
Ac-PPPLPKKMIIRANTEPISKD-NH2 [PEAK1 tandem peptide, non-phosphorylated (residues 1152-1171)]

>  <Quantity>
pKd

>  <Measured>
< 4.00

$$$$
>  <Binder>
Ac-PPPLPKKMIIRAN[pT]EPISKD-NH2 [PEAK1 tandem-pT1165 peptide (residues 1152-1171)]

>  <Quantity>
pKd

>  <Measured>
5.01

$$$$
